- Measured On: AHR (Homo sapiens, UniProt P35869)
- Sequence (P35869 11-848): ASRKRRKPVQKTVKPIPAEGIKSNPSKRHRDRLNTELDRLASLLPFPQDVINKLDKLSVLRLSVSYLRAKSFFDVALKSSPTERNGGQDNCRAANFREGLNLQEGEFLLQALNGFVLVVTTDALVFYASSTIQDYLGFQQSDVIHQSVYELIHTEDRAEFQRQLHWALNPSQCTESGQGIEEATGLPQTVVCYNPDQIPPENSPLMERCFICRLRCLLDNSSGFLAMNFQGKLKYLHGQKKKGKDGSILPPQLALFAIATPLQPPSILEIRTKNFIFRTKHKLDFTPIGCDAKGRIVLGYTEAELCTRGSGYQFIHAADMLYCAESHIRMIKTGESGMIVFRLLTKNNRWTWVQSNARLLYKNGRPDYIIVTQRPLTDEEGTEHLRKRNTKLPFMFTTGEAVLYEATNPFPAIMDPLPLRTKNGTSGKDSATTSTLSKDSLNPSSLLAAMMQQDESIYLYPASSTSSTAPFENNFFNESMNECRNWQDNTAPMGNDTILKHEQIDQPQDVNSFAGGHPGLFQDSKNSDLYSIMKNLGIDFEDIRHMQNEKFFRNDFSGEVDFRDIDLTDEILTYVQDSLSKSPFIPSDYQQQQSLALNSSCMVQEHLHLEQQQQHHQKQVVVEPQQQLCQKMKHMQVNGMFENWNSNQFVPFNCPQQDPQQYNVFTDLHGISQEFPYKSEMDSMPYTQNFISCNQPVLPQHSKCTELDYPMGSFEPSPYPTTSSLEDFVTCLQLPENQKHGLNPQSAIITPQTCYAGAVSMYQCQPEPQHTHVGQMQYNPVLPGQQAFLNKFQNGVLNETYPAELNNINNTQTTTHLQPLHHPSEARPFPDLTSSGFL
- Test Name: In vitro assay 1: antagonism in human cell line (transactivation assay, U87 cells prestimulated with kynurenic acid, DRE firefly luciferase reporter)
- Type: cell-based
- Parameters: host or cells: U87 glioblastoma cells, stably transfected with DRE firefly luciferase and renilla reporter constructs
- Condition Description: 150 uM kynurenic acid, 20 hours, read-out: Assay 1: AHR-luc Hum Antagonism IC50
Recorded Endpoint: IC50 (nM)

Worked cases, answers included:
Cn1cc(-n2nc(-c3ccc(CF)cc3)cc(C(=O)NC[C@H](O)C(F)(F)F)c2=O)cn1 :: 430
CC(C)(O)C(NC(=O)c1cc(-c2ccc(C(F)(F)F)cc2)nn(-c2cccnc2)c1=O)C(F)(F)F (centres unmarked) [Example 213] :: 1.92
Cn1cc(-n2nc(-c3ccc(Cl)cc3)cc(C(=O)NC(CO)CO)c2=O)cn1 :: 244
O=C(N[C@H](CO)C1CC1)c1cc(-c2ccc(Cl)cc2)nn(-c2cncnc2)c1=O :: 101
C[C@H](CO)NC(=O)c1cc(-c2ccc(Cl)cc2)nn(-c2cncnc2)c1=O :: 168

[1] Cc1cc(-n2nc(-c3ccc(Cl)cc3)cc(C(=O)NCC(C)(C)O)c2=O)cs1
[2] O=C(N[C@@H]1COC[C@@H]1O)c1cc(-c2ccc(C(F)F)cc2)nn(-c2cccnc2)c1=O (single isomer, unassigned) [Example 318]
Prompt line: Which numeric IC50 is bigger, that of 1 or that of 2 ? Choose, then provide that item's label.
Response line: 2

[A] O=C(N[C@H]1CCC[C@H]1O)c1cc(-c2ccc(OC(F)(F)F)cc2)nn(-c2cccnc2)c1=O
[B] O=C(NC[C@H](O)C(F)(F)F)c1cc(-c2ccc(Cl)cc2)nn(-c2cnn(C3CCC3)c2)c1=O
[C] O=C(N[C@H]1CCC[C@H]1O)c1cc(-c2ccc(C(F)(F)F)nc2)nn(-c2cncc(F)c2)c1=O
Prompt line: Arrange items by their IC50 values in increasing order. Enter labels, ranked according to the request.
Response line: A, C, B
(A: 12.2 nM, C: 24.1 nM, B: 1100 nM)

---

- Measured On: AHR (Homo sapiens)
- Test Name: In vitro assay 1: antagonism in human cell line (transactivation assay, U87 cells prestimulated with kynurenic acid, DRE firefly luciferase reporter)
- Type: cell-based
- Set-up: host or cells: U87 glioblastoma cells, stably transfected with DRE firefly luciferase and renilla reporter constructs
- Condition Description: 150 uM kynurenic acid, 20 hours, read-out: Assay 1: AHR-luc Hum Antagonism IC50
Recorded Endpoint: IC50 (nM)

Cn1cc(-n2nc(-c3ccc(Cl)cc3)cc(C(=O)N[C@@H]3CCC[C@]3(C)O)c2=O)cn1 (relative stereo) [Example 317] :: 30.3

[A] COCC(O)CNC(=O)c1cc(-c2ccc(Cl)cc2)nn(-c2cnn(C)c2)c1=O (single isomer, unassigned; (-)) [Example 25]
[B] CC(C)(O)CNC(=O)c1cc(-c2ccc(Cl)cc2)nn(-c2cccnc2)c1=O [Example 71]
[C] O=C(NC[C@H](O)C(F)(F)F)c1cc(-c2ccc(C(F)F)cc2)nn(-c2cccnc2)c1=O [Example 313]
Prompt line: Form: Sort by [IC50] Order [ ascending ] Thanks in advance for listing the labels in the requested order.
Response line: C, B, A
